Where these numbers come from: patent US20100136009A1

Target: T1, Ovr110 (amino acids 1-282; Ovr110 Construct 1 without the 6-His tag) expressed on transiently transfected … (human, UniProt Q7Z7D3 25-282)
T1 construct: signal peptide not removed here
T1 sequence: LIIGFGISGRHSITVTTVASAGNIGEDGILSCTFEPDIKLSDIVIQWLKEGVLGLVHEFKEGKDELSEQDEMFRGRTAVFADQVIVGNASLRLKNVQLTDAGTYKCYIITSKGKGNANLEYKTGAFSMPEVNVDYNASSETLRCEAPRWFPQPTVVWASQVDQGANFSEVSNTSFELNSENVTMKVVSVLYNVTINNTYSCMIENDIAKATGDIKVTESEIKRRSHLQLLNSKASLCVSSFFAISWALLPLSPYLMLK
Assay: flow cytometry; hybridoma supernatant; Ovr110-transfected 293F cells
quantity.measured: % Cells Positive (%)
Answers are plain numbers, in %.

Ovr110.Q23 (antibody, IgG1, V domains shown, Mouse hybridoma MAb; also called Q23.6) VH: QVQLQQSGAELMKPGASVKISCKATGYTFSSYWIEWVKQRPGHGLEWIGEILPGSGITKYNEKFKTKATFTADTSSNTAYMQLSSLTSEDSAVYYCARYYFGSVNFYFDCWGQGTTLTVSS VL: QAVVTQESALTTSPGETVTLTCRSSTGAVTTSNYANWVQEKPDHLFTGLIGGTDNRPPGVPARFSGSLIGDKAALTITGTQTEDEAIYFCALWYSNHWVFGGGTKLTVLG    94.7

Now consider a different binder.
% Cells Positive measured on Ovr110.Q12 (antibody, IgG1, V domains shown, Mouse hybridoma MAb; also called Q12.2; Ovr110.Q12.2) VH: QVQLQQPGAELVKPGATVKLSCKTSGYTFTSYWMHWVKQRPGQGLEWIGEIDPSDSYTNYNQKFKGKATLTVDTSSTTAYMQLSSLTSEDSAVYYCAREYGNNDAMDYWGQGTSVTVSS VL: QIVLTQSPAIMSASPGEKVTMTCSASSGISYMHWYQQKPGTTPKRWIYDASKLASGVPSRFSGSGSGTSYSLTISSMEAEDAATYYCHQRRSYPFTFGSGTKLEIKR = 96.6
